Data credit: patent US12291529B2

Experiment: Rat IV/PO PK study, Method A
Assay type: in vivo, male Sprague Dawley (SD) rats
Settings: male, Sprague Dawley, plasma, 1 mg/kg, elimination half life (IV), Method A
This section presents molecules with their documented half-life values.
Just the number in h, nothing appended.

Consider the worked cases shown below.
molecule | number
Cc1cc(-n2nc3c(c2-n2ccn(-c4ccc5c(cnn5C)c4F)c2=O)[C@H](C)N(C(=O)c2cc4cc([C@H]5CCOC(C)(C)C5)ccc4n2[C@@]2(c4noc(=O)[nH]4)C[C@@H]2C)CC3)cc(C)c1F [Compound C-5, reference compound] | 8.1
CCS(=O)(=NC)c1ccc(-n2ccn(-c3c4c(nn3-c3cc(C)c(F)c(C)c3)CCN(C(=O)c3cc5cc(C6CCOCC6)ccc5n3[C@@]3(c5noc(=O)[nH]5)C[C@@H]3C)[C@H]4C)c2=O)c(F)c1 (single isomer, unassigned) | 1.6
CN=S(=O)(c1ccc(-n2ccn(-c3c4c(nn3-c3cc(C)c(F)c(C)c3)CCN(C(=O)c3cc5cc([C@H]6CCOC(C)(C)C6)ccc5n3[C@@]3(c5noc(=O)[nH]5)C[C@@H]3C)[C@H]4C)c2=O)c(F)c1)C1CC1 (single isomer, unassigned) | 3

Now look at this one.
Task: Return value of half-life for input CN=S(=O)(c1ccc(-n2ccn(-c3c4c(nn3-c3cc(C)c(F)c(C)c3)CCN(C(=O)c3cc5cc([C@H]6CCOC(C)(C)C6)ccc5n3[C@@]3(c5noc(=O)[nH]5)C[C@@H]3C)[C@H]4C)c2=O)c(F)c1NC)C1CC1 (single isomer, unassigned) , no commentary.
Result: 4.78

---

Molecular target: GLP-1 Receptor (Homo sapiens)
Test: GLP-1R agonist cAMP stimulation assay (HEK293/GLP1R/CRE-LUC cells, Cisbio cAMP dynamic 2 kit)
Assay type: cell-based
Settings: Table 3, HEK293/GLP1R/CRE-LUC cells, 30 min
pEC50: −log10 of the molar value.
The label depends only on pEC50: Condition met if it is at least 10, Condition not met if it is smaller.

Example results:
compound | assigned-label
Cc1cc(-n2ccn(-c3c4c(nn3-c3cc(C)c(F)c(C)c3)CCN(C(=O)c3cc5cc([C@H]6CCOC(C)(C)C6)ccc5n3[C@@]3(c5noc(=O)[nH]5)C[C@@H]3C)[C@H]4C)c2=O)c(F)cc1S(=N)(=O)C1CC1 (single isomer, unassigned) [Compound 189] | Condition met
CCS(=O)(=NC)c1ccc(-n2ccn(-c3c4c(nn3-c3cc(C)c(F)c(C)c3)CCN(C(=O)c3cc5cc(C6CCOCC6)ccc5n3Cc3cnc(C)cn3)[C@H]4C)c2=O)c(F)c1 (single isomer, unassigned) [Compound 170] | Condition not met
CCS(=O)(=NC)c1ccc(-n2ccn(-c3c4c(nn3-c3cc(C)c(F)c(C)c3)CCN(C(=O)c3cc5cc([C@H]6CCOC(C)(C)C6)ccc5n3[C@@]3(c5noc(=O)[nH]5)C[C@@H]3C)[C@H]4C)c2=O)c(F)c1 (single isomer, unassigned) [Compound 164] | Condition met

Next item in the queue.
Task: Does the reported pEC50 for Cc1cc(-n2nc3c(c2-n2ccn(-c4ccc5c(c4F)CN=S5(C)=O)c2=O)[C@H](C)N(C(=O)c2cc4cc([C@H]5CCOC(C)(C)C5)ccc4n2[C@@]2(c4noc(=O)[nH]4)C[C@@H]2C)CC3)cc(C)c1F (single isomer, unassigned) [Compound 188] fall at or above the 10 mark?
Result: Condition met

---

Below, each entry is listed alongside its reported efflux ratio at 2 h, 10 μM.
Assay: Caco-2 permeability / efflux study
Format: in vitro ADME
Conditions: human, Caco-2, pH 7.4, Caco-2 efflux ratio, 10 μM
Please state the value as a number alone, without comment.

Task: Answer with the recorded efflux ratio at 2 h, 10 μM of CN=S(=O)(c1ccc(-n2ccn(-c3c4c(nn3-c3cc(C)c(F)c(C)c3)CCN(C(=O)c3cc5cc([C@H]6CCOC(C)(C)C6)ccc5n3[C@@]3(c5noc(=O)[nH]5)C[C@@H]3C)[C@H]4C)c2=O)c(F)c1)C1CC1 (single isomer, unassigned) only.
Result: 5.4

Task: Recall and state the measured efflux ratio at 2 h, 10 μM for CCS(=O)(=NC)c1ccc(-n2ccn(-c3c4c(nn3-c3cc(C)c(F)c(C)c3)CCN(C(=O)c3cc5cc(C6CCOCC6)ccc5n3[C@@]3(c5noc(=O)[nH]5)C[C@@H]3C)[C@H]4C)c2=O)c(Cl)c1 (single isomer, unassigned) .
Result: 36.8

Task: Indicate its recorded efflux ratio at 2 h, 10 μM; the compound in question is Cc1cc(-n2nc3c(c2-n2ccn(-c4ccc(S(=N)(=O)C5CC5)cc4F)c2=O)[C@H](C)N(C(=O)c2cc4cc([C@H]5CCOC(C)(C)C5)ccc4n2[C@@]2(c4noc(=O)[nH]4)C[C@@H]2C)CC3)cc(C)c1F (single isomer, unassigned)
Result: 38

Task: Note efflux ratio at 2 h, 10 μM for the compound shown: Cc1cc(-n2nc3c(c2-n2ccn(-c4ccc(S(=N)(=O)C5CCC5)cc4F)c2=O)[C@H](C)N(C(=O)c2cc4cc([C@H]5CCOC(C)(C)C5)ccc4n2[C@@]2(c4noc(=O)[nH]4)C[C@@H]2C)CC3)cc(C)c1F (single isomer, unassigned)
Result: 45

Task: State its efflux ratio at 2 h, 10 μM: CCS(=O)(=NC)c1ccc(-n2ccn(-c3c4c(nn3-c3cc(C)c(F)c(C)c3)CCN(C(=O)c3cc5cc(C6CCOCC6)ccc5n3[C@@]3(c5noc(=O)[nH]5)C[C@@H]3C)[C@H]4C)c2=O)c(F)c1 (single isomer, unassigned)
Result: 26

Task: Look up efflux ratio at 2 h, 10 μM of CCS(=O)(=NC)c1ccc(-n2ccn(-c3c4c(nn3-c3cc(C)c(F)c(C)c3)CCN(C(=O)c3cc5cc([C@H]6CCOC(C)(C)C6)ccc5n3[C@@]3(c5noc(=O)[nH]5)C[C@@H]3C)[C@H]4C)c2=O)c(F)c1C (single isomer, unassigned) and report it.
Result: 15.7

Task: Given CN=S(=O)(c1ccc(-n2ccn(-c3c4c(nn3-c3cc(C)c(F)c(C)c3)CCN(C(=O)c3cc5cc([C@H]6CCOC(C)(C)C6)ccc5n3[C@@]3(c5noc(=O)[nH]5)C[C@@H]3C)[C@H]4C)c2=O)c(F)c1NC)C1CC1 (single isomer, unassigned) , respond with its efflux ratio at 2 h, 10 μM.
Result: 9.8

Task: Using the record for CN=S(=O)(c1ccc(-n2ccn(-c3c4c(nn3-c3cc(C)c(F)c(C)c3)CCN(C(=O)c3cc5cc([C@H]6CCOC(C)(C)C6)ccc5n3[C@@]3(c5noc(=O)[nH]5)C[C@@H]3C)[C@H]4C)c2=O)cc1NC)C1CC1 (single isomer, unassigned) , state its measured efflux ratio at 2 h, 10 μM.
Result: 20.7

Task: Annotate the compound Cc1cc(-n2nc3c(c2-n2ccn(-c4ccc(N5CCCS5(=O)=O)cc4)c2=O)[C@H](C)N(C(=O)c2cc4cc(C5CCOCC5)ccc4n2[C@@]2(c4noc(=O)[nH]4)C[C@@H]2C)CC3)cc(C)c1F [Compound C-4, reference compound] with its measured efflux ratio at 2 h, 10 μM.
Result: 16.7

Task: Specify reported efflux ratio at 2 h, 10 μM for the compound shown: CCS(=O)(=NC)c1ccc(-n2ccn(-c3c4c(nn3-c3cc(C)c(F)c(C)c3)CCN(C(=O)c3cc5cc(C6CCOCC6)ccc5n3[C@@]3(c5noc(=O)[nH]5)C[C@@H]3C)[C@H]4C)c2=O)cc1 (single isomer, unassigned)
Result: 24.1

Task: Please list efflux ratio at 2 h, 10 μM recorded for the compound CN=S(C)(=O)c1ccc(-n2ccn(-c3c4c(nn3-c3cc(C)c(F)c(C)c3)CCN(C(=O)c3cc5cc(C6CCOCC6)ccc5n3[C@@]3(c5noc(=O)[nH]5)C[C@@H]3C)[C@H]4C)c2=O)cc1 (single isomer, unassigned)
Result: 90.8

Task: Tell me efflux ratio at 2 h, 10 μM reported for Cc1cc(-n2nc3c(c2-n2ccn(-c4ccc(S(=N)(=O)C5CCC5)cc4F)c2=O)[C@H](C)N(C(=O)c2cc4cc(C5CCOCC5)ccc4n2[C@@]2(c4noc(=O)[nH]4)C[C@@H]2C)CC3)cc(C)c1F (single isomer, unassigned)
Result: 50

Task: Name the recorded efflux ratio at 2 h, 10 μM of the compound listed here: CN=S(=O)(c1ccc(-n2ccn(-c3c4c(nn3-c3cc(C)c(F)c(C)c3)CCN(C(=O)c3cc5cc([C@H]6CCOC(C)(C)C6)ccc5n3[C@@]3(c5noc(=O)[nH]5)C[C@@H]3C)[C@H]4C)c2=O)c(F)c1Cl)C1CC1 (single isomer, unassigned)
Result: 11.4

---

Biological target: GLP-1 Receptor (Homo sapiens, UniProt P43220)
Sequence (P43220 24-463, species assumed): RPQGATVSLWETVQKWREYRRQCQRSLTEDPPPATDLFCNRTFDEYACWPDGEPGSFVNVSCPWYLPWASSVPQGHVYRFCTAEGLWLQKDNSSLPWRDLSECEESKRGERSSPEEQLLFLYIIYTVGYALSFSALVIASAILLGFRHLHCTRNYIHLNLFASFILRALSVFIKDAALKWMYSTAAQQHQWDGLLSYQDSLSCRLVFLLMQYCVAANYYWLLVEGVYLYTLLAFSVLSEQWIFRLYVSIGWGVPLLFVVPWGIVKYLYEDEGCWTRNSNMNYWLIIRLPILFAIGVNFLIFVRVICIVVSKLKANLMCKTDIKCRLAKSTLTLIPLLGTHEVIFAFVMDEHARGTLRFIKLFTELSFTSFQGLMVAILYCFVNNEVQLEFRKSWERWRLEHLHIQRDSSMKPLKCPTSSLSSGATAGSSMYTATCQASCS
Assay: GLP-1R agonist cAMP stimulation assay (HEK293/GLP1R/CRE-LUC cells, Cisbio cAMP dynamic 2 kit)
Format: cell-based
Conditions: Table 3, HEK293/GLP1R/CRE-LUC cells, 30 min
Recorded log10 EC50 for the following compounds
Log10 applied to EC50; unit prior to transform: pM.

compound | log10 EC50
Cc1cc(-n2nc3c(c2-n2ccn(-c4ccc(S(C)(=O)=NC#N)cc4)c2=O)[C@H](C)N(C(=O)c2cc4cc(C5CCOCC5)ccc4n2[C@@]2(c4noc(=O)[nH]4)C[C@@H]2C)CC3)cc(C)c1F (single isomer, unassigned) [Compound 113] | 1.54

Task: Report the value of log10 EC50 obtained on GLP-1 Receptor (Homo sapiens, UniProt P43220) for Cc1cc(-n2nc3c(c2-n2ccn(-c4ccc(C5(S(C)(=N)=O)CC5)cc4)c2=O)[C@H](C)N(C(=O)c2cc4cc(C5CCOCC5)ccc4n2[C@@]2(c4noc(=O)[nH]4)C[C@@H]2C)CC3)cc(C)c1F (single isomer, unassigned) [Compound 176] .
Result: 1.38

Task: Name the value of log10 EC50 reported for Cc1cc(-n2nc3c(c2-n2ccn(-c4ccc(C5CCS(=N)(=O)CC5)cc4)c2=O)[C@H](C)N(C(=O)c2cc4cc(C5CCOCC5)ccc4n2[C@@]2(c4noc(=O)[nH]4)C[C@@H]2C)CC3)cc(C)c1F (single isomer, unassigned) [Compound 182] when tested on GLP-1 Receptor (Homo sapiens, UniProt P43220).
Result: 1.89

Task: Provide log10 EC50, system GLP-1 Receptor (Homo sapiens, UniProt P43220), entry Cc1cc(-n2nc3c(c2-n2ccn(-c4ccc5c(c4Cl)CN=S5(C)=O)c2=O)[C@H](C)N(C(=O)c2cc4cc([C@H]5CCOC(C)(C)C5)ccc4n2[C@@]2(c4noc(=O)[nH]4)C[C@@H]2C)CC3)cc(C)c1F (single isomer, unassigned) [Compound 202]
Result: 1.26

Task: Give measured log10 EC50 for CN=S(=O)(c1ccc(-n2ccn(-c3c4c(nn3-c3cc(C)c(F)c(C)c3)CCN(C(=O)c3cc5cc([C@H]6CCOC(C)(C)C6)ccc5n3[C@@]3(c5noc(=O)[nH]5)C[C@@H]3C)[C@H]4C)c2=O)c(F)c1Cl)C1CC1 (single isomer, unassigned) [Compound 215] (GLP-1 Receptor (Homo sapiens, UniProt P43220)).
Result: 1.87

Task: Please look at Cc1cc(-n2nc3c(c2-n2ccn(-c4cc5c(cc4F)S(C)(=O)=NC5)c2=O)[C@H](C)N(C(=O)c2cc4cc([C@H]5CCOC(C)(C)C5)ccc4n2[C@@]2(c4noc(=O)[nH]4)C[C@@H]2C)CC3)cc(C)c1F (single isomer, unassigned) [Compound 199] and tell me its recorded log10 EC50 on GLP-1 Receptor (Homo sapiens, UniProt P43220).
Result: 1.00

Task: Determine reported log10 EC50 for Cc1nnc(C2(n3c(C(=O)N4CCc5nn(-c6cc(C)c(F)c(C)c6)c(-n6ccn(-c7ccc(S8(=O)=NCCC8)cc7)c6=O)c5[C@@H]4C)cc4cc(C5CCOCC5)ccc43)CC2)o1 (single isomer, unassigned) [Compound 156] ; test system: GLP-1 Receptor (Homo sapiens, UniProt P43220).
Result: 3.18

Task: Write down the reported log10 EC50 (system: GLP-1 Receptor (Homo sapiens, UniProt P43220)) of CC[C@H]1C[C@]1(c1noc(=O)[nH]1)n1c(C(=O)N2CCc3nn(-c4cc(C)c(F)c(C)c4)c(-n4ccn(-c5ccc(S(=N)(=O)CC)cc5F)c4=O)c3[C@@H]2C)cc2cc(C3CCOCC3)ccc21 (single isomer, unassigned) [Compound 173]
Result: 1.08
